- System: MDA-MB-435 melanoma
- assay protocol: NCI-60 one-dose screen, 48 h (100 = growth as untreated, 0 = no growth, -100 = all killed)
- condition context: 10 µM unless noted
This is part of a sample that, as a whole, favours compounds with a hit. Of some 83,000 tested, about 20% had one in any assay.
So I've got a bunch of molecules here, and I need their growth values.
One number for each entry, in %.

Some solved cases for reference:
structure smiles string	growth (%)
CC(=O)c1c(C)nc(SCC(=O)Nc2cccc(O)c2)n1-c1ccc(Cl)cc1	84.7
O=C1/C(=C/c2cccc(F)c2)CN(C(=O)C(Cl)Cl)C/C1=C\c1cccc(F)c1	-90.2

For each entry beneath this line, provide reported growth.
1. C=CCN=c1sc2c(n1NC(=O)c1cc3ccc1CCc1ccc(cc1)CC3)C(=O)c1ccccc1C2=O
2. C=C1C(=O)O[C@H]2[C@H]1CC/C(COC(=O)C(=O)c1cn(C)c3ccc(Cl)cc13)=C\CC[C@@]1(C)O[C@@H]21

Out:
[-93.5, -81.3]

* * *

- Test system: MCF7 breast
- assay protocol: NCI-60 one-dose screen, 48 h
- condition context: 10 µM unless noted
The panel holds about 83,000 compounds, 20% with a hit somewhere; the sample as a whole holds those more often. The source made the active and inactive calls. Rule for the calls: active = growth percent below 10; inactive = the rest.
Hi! Could you answer with just one of these? active, inactive

Sample answers from the record:
molecule	category
C=C1C(=O)O[C@H]2[C@H]1CC/C(COC(=O)C(=O)c1cn(C)c3ccc(Cl)cc13)=C\CC[C@@]1(C)O[C@@H]21	active
COc1ccc(/C=N/NC(=O)c2ccc(-n3cc(-c4ccccc4)nn3)cc2)cc1OC	inactive
CC(=O)N1N=C(c2ccc(Nc3nc(Nc4ccccc4)nc(Nc4ccccc4)n3)cc2)CC1c1cccc([N+](=O)[O-])c1 (stereo not drawn)	inactive
CC1(C)CC(=O)C2=C(C1)N(c1ccc(OC(F)(F)F)cc1)C(N)=C(C#N)C2c1ccc(Br)cc1F (stereo not drawn)	inactive
CCN1C(=S)N(c2ccccc2)C2C1NN=c1s/c(=C3\C(=O)N(C(C)C)c4ccccc43)c(=O)n12 (stereo not drawn)	inactive

In: Per the assay record, what outcome was assigned to `CC/C=C\C[C@H](O)C/C=C1/C(=O)C=C[C@@H]1C/C=C\CCCC(=O)N(C)C` ?
Out: active

In: Could you check what this test reported for `CN1CCN(C(=O)c2ccc(NC(=O)c3cc4c(nn3)NCCN4Cc3cc(Cl)ccc3Cl)cc2)CC1` ?
Out: inactive

In: Any idea what this test logged for `c1ccc(-c2oc(-c3ccccc3)c(CN3CCCCC3)c2CN2CCCCC2)cc1` ?
Out: inactive

In: Recorded call for `NC(=O)c1cccc(-n2ccc3cc(NC(=O)c4ccc(N5CCOCC5)c(C(F)(F)F)c4)ccc32)n1` ?
Out: inactive

In: Called result for `Oc1c(I)cc(I)cc1CNCCN(Cc1ccccn1)Cc1ccccn1`
Out: active

In: Outcome? `COc1ccc2c(c1OC)CO[C@@H]2[C@H]1c2c(cc3c(c2OC)OCO3)CCN1S(=O)(=O)c1cn(C)cn1`
Out: inactive

In: So what was the verdict on `COc1ccc(CN2c3ccccc3Sc3ccccc32)cc1F` in this test?
Out: inactive

In: Status in this test for `COCCn1cc(-c2nc(-c3cc4cccnc4[nH]3)cs2)c2cc(OC)ccc21` ?
Out: active

In: Hi, sorry to bother you, what did the test record for `C/C(=N\O)c1ccc(Cl)cc1` ?
Out: inactive

In: Could you check what this test reported for `CCCCCCCCCc1ccc(OCCOCCOCCOCCOCCOCCOCCOCCOCCO)cc1` ?
Out: inactive

In: Can you look up the reported call for `COc1ccc(Nc2ncc(Br)c(NCCCNC(=O)C3CCCC3)n2)cc1` for me?
Out: inactive

In: Dear colleague, could you share the recorded outcome for `CCC1=C[C@@H]2C[C@]3(C(=O)OC)c4[nH]c5ccccc5c4CC[N@+](CC(=O)Nc4cc5c(cc4OC)N(C)[C@H]4[C@@](O)(C(=O)OC)[C@H](OC(C)=O)[C@]6(CC)C=CCN7CC[C@]54[C@@H]76)(C2)[C@H]13` when you have a moment?
Out: inactive

In: Please share the test call associated with `CSc1nc2ccccc2cc1/C=[N+](\[O-])c1ccccc1` .
Out: inactive

* * *

- Tested on: HT29 colon
- assay protocol: NCI-60 one-dose screen, 48 h (100 = growth as untreated, 0 = no growth, -100 = all killed)
- condition context: 10 µM unless noted
The panel holds about 83,000 compounds, 20% with a hit somewhere; the sample as a whole holds those more often.
readout type: growth (%)
One number for each entry, in %.

compound	unit abbrev	growth
Cc1ccc(Nc2cc(N)nc(N)n2)cc1Cl	%	98.2
Cc1cccc(/C=C2\CN(C(=O)OC(C)(C)C)C/C(=C\c3cccc(C)c3)C2=O)c1	%	46.5

Provide growth values for the following items, in order.
1. COc1ccc(OC)c(/C=N/Nc2ncnc3c2c(C)nn3C)c1
2. CCN(C)S(=O)(=O)Nc1cccc(Nc2ncnc3cc(NC(=O)CCl)ccc23)c1Cl
3. COC(=O)[C@]1(C)CCC[C@]2(C)[C@H]3C[C@H]4C(C(C)C)=C[C@]3(CC[C@H]21)[C@@H]1C(=O)CC[C@H](OCCC#N)[C@@H]14
4. CCOC(=O)C1=C(C)NC(=O)NC1c1c(Cl)n(CCCl)c2ccccc12 (stereo not given)
5. O=C(c1ccncc1)N1N=C(c2ccc(Cl)cc2)C[C@H]1c1cn(-c2ccccc2)nc1-c1ccccc1

Out:
1: 88.3; 2: -56.9; 3: 69.6; 4: 107; 5: 104

* * *

Give growth for every item shown.
- Test system: UACC-257 melanoma
- assay protocol: NCI-60 one-dose screen, 48 h (100 = growth as untreated, 0 = no growth, -100 = all killed)
- condition context: 10 µM unless noted
About 83,000 compounds went through this panel and 20% of them were active in at least one assay; those are over-represented in the sample as a whole. Activity calls are given as the source filed them. How the source made its calls: active means growth percent below 10; inactive means the rest.

Below, 6 compounds whose answers are already recorded.
compound	measured target	readout type	value measured
O=C(Nc1nc(-c2ccc(Cl)cc2)nc2c1sc(=S)n2-c1ccccc1)C(F)(F)F	UACC-257 melanoma	growth	51.1% (inactive)
COC(=O)C1Cc2ccccc2CN1C(=O)c1ccc2c(c1)Cc1ccccc1-2 (centres undefined)	UACC-257 melanoma	growth	29% [50 µM] (inactive)
CC1CCN(S(=O)(=O)c2ccc(S(=O)(=O)N3CCCC(c4nc5c(nnn5Cc5cccc(Cl)c5)c(=O)[nH]4)C3)cc2)CC1 (centres undefined)	UACC-257 melanoma	growth	54.2% (inactive)
CC(=O)N1N=C(c2ccc(Nc3nc(Nc4ccccc4)nc(Nc4ccccc4)n3)cc2)CC1c1ccccc1 (centres undefined)	UACC-257 melanoma	growth	113% (inactive)
CCOC(=O)Cc1cnc(N/N=C(\C)c2cc3ccccc3o2)s1	UACC-257 melanoma	growth	98.2% (inactive)
COc1cc2ncnc(Nc3ccc(F)c(Cl)c3)c2cc1OCC(=O)N1CCN(c2ccccc2)CC1	UACC-257 melanoma	growth	107% (inactive)

Can you give me growth for all of these, one by one?
1. COc1ccc(C(=O)c2cc3c(N)c(C(=O)Nc4ccc(C)cc4)sc3nc2C)cc1
2. CCN(CC)CCCCCNc1cc(OC(=O)c2ccc(Cl)cc2)cc2cccnc12
3. CCOC(=O)C/C(=N\Nc1cc(=O)[nH]c2ccc(Br)cc12)C(=O)OCC

Out:
1. 58.1% (inactive)
2. 95.9% (inactive)
3. 111% (inactive)

* * *

- System: COLO 205 colon
- assay protocol: NCI-60 one-dose screen, 48 h (100 = growth as untreated, 0 = no growth, -100 = all killed)
- condition context: 10 µM unless noted
Compounds without any hit were thinned out: in the full panel of roughly 83,000, 20% have a hit.
# TRUE = growth below 90% (exclusive); FALSE = growth at/above 90%

compound	category
COc1c(B(O)O)cccc1-c1nc2c(F)cc3[nH]ncc3c2c2c1CCCC2	TRUE
O=C(Nc1ccccc1O)c1ccc(CNC(=O)c2sccc2Nc2ccnc(C(F)(F)F)c2)cc1	TRUE
C=C(C)[C@@H]1CC[C@]2(C(=O)O)CC[C@]3(C)[C@H](CC[C@@H]4[C@@]5(C)CCC(NC(=O)c6cccc(OC(C)=O)c6OC(C)=O)C(C)(C)[C@@H]5CC[C@]43C)[C@@H]12 (some centres undefined)	TRUE
O=C(Nc1nc2cc(C(=O)N3CCN(C(c4ccccc4)c4ccccc4)CC3)ccc2o1)c1ccc(NC2CCCCC2)c([N+](=O)[O-])c1	TRUE
N#Cc1c(-c2ccccc2)[nH]c2ncc(-c3ccccc3)n2c1=O	FALSE

In: Would you kindly verify if growth of `O=C(Cn1cc(CSc2nc3ccccc3o2)nn1)Nc1ccc(F)cc1F` is strictly less than 90%?
Out: FALSE

In: Is it true that growth reported for `O=C1/C(=C/c2cn(-c3ccccc3)nc2-c2ccccc2)SC(=S)N1C1CCCCC1` is less than 90%?
Out: FALSE

In: Please let me know if `Cc1c(O)cc(-c2cnc(Nc3ccccc3)s2)c(O)c1C` shows growth below 90%.
Out: FALSE

In: Lab note: growth threshold 90%. Does this compound come in strictly under it? `CN1C(=O)/C(=C\c2c(Cl)cccc2Cl)c2ccccc21`
Out: FALSE
